Reference for the values: patent US10363239B2

// reported MOR agonist activity ([35S]GTPγS binding), FLNA-Binding Compound as Agonist 0.1 μM for each item listed
# System: mu opiate receptor (MOR)
# EXPERIMENTAL PROTOCOL: MOR agonist activity using [35S]GTPγS binding assay in striatal membranes
# Type: biochemical
# SETTINGS: 0.1 μM compound
OUTCOME MEASURE: MOR agonist activity ([35S]GTPγS binding), FLNA-Binding Compound as Agonist 0.1 μM (%)

COMPOUND | ASSAY SYSTEM | REPORTED RESULT
CC1CCC(C(C)C)C(OCC(O)CN2CCC(=O)CC2)C1 (stereo not drawn) | mu opiate receptor (MOR) | 99.7
CC1CCC(C(C)C)C(OCC(O)CN2CCCCC2C)C1 (stereo not drawn) | mu opiate receptor (MOR) | 102.0
COc1ccc(OCC(O)CN2CC(C)OC(C)C2)cc1 (stereo not drawn) | mu opiate receptor (MOR) | 233.7
COc1ccc(OCC(O)CN2CCc3cc4c(c(OC)c3C2)OCO4)cc1 (stereo not drawn) | mu opiate receptor (MOR) | 128.6
CC1CCC(C)C(OCC(O)CN2CC(C)OC(C)C2)C1 (stereo not drawn) | mu opiate receptor (MOR) | 154.1
CC1CN(CC(O)COc2cccc(N(C)C)c2)CC(C)O1 (stereo not drawn) | mu opiate receptor (MOR) | 147.5
COc1ccc(OCC(O)CN2CCCc3ccccc32)cc1 (stereo not drawn) | mu opiate receptor (MOR) | 170.8
CC1CCC(C(C)C)C(OCC(O)CN2CCCCC2=O)C1 (stereo not drawn) | mu opiate receptor (MOR) | 144.1
CC(=O)c1ccc(OCC(O)CN2CC(C)OC(C)C2)cc1 (stereo not drawn) | mu opiate receptor (MOR) | 176.2
CC1CCC(C(C)C)C(OCC(O)CN2CCOc3ccccc32)C1 (stereo not drawn) | mu opiate receptor (MOR) | 151.9
CC1CCC(C(C)C)C(OCC(O)CN2CCSCC2)C1 (stereo not drawn) | mu opiate receptor (MOR) | 176.8
CC1CN(CC(O)COc2cccc(F)c2)CC(C)O1 (stereo not drawn) | mu opiate receptor (MOR) | 232.3
CC1CCC(C(C)C)C(OCC(O)CN2CCCCCC2)C1 (stereo not drawn) | mu opiate receptor (MOR) | 102.1
CC1CCN(CC(O)COC2CC(C)CCC2C(C)C)CC1 (stereo not drawn) | mu opiate receptor (MOR) | 170.0
Cc1ccc(C(C)C)c(OCC(O)CN2CC(C)OC(C)C2)c1 (stereo not drawn) | mu opiate receptor (MOR) | 143.6
CC1CCC(C(C)C)C(OCC(O)CN2CC(C)OC(C)C2)C1 (stereo not drawn) [Compound A3333] | mu opiate receptor (MOR) | 170.7
COc1c2c(cc3c1OCO3)CCN(CC(O)COC1CC(C)CCC1C(C)C)C2 (stereo not drawn) | mu opiate receptor (MOR) | 110.3
CC1CN(CC(O)COc2ccc(Br)c(F)c2)CC(C)O1 (stereo not drawn) | mu opiate receptor (MOR) | 212.7
CC1CN(CC(O)COc2ccccc2Br)CC(C)O1 (stereo not drawn) | mu opiate receptor (MOR) | 183.3
OC(COc1ccc(Br)c(F)c1)CN1CCc2ccccc2C1 (stereo not drawn) | mu opiate receptor (MOR) | 124.2
CC1CN(CC(O)COC2CCCCC2)CC(C)O1 (stereo not drawn) | mu opiate receptor (MOR) | 161.9
CC1CCC(C(C)C)C(OCC(O)CN(C(C)C)C(C)C)C1 (stereo not drawn) | mu opiate receptor (MOR) | 177.9
CC1CCC(C(C)C)C(OCC(O)CN2CCc3ccccc3C2)C1 (stereo not drawn) | mu opiate receptor (MOR) | 46.1
COc1ccc(OCC(O)CN2CCOc3ccccc32)cc1 (stereo not drawn) | mu opiate receptor (MOR) | 79.8
CC1CCC(C(C)C)C(OCC(O)CN2CCN(CCN3CCCCC3)CC2)C1 (stereo not drawn) | mu opiate receptor (MOR) | 178.2
CN(C)c1cccc(OCC(O)CN2CCc3ccccc3C2)c1 (stereo not drawn) | mu opiate receptor (MOR) | 151.0
CC1CCC(C(C)C)C(OCC(O)Cn2cccc2)C1 (stereo not drawn) | mu opiate receptor (MOR) | 176.7
CC1CCC(C(C)C)C(OCC(CN2CC(C)OC(C)C2)NCc2ccccc2)C1 (stereo not drawn) | mu opiate receptor (MOR) | 155.8
CC1CN(CC(O)COc2ccc(Cl)cc2)CC(C)O1 (stereo not drawn) | mu opiate receptor (MOR) | 233.0
CC1CN(CC(O)COc2ccc(Br)c(Cl)c2)CC(C)O1 (stereo not drawn) | mu opiate receptor (MOR) | 143.9
OC(COc1ccc(Br)c(F)c1)CN1CCSCC1 (stereo not drawn) | mu opiate receptor (MOR) | 99.2
OC(COc1cccc(F)c1)CN1CCc2ccccc2C1 (stereo not drawn) | mu opiate receptor (MOR) | 89.8
CC1CCC(C(C)C)C(OCC(O)CN2CC(C)OC(C)C2)C1 (stereo not drawn) [Compound A0032-1] | mu opiate receptor (MOR) | 187.4
COc1ccc(OCC(O)Cn2ccc3ccccc32)cc1 (stereo not drawn) | mu opiate receptor (MOR) | 300.1
CC1CCC(C(C)C)C(OCC(O)CN2CCCN(C)CC2)C1 (stereo not drawn) | mu opiate receptor (MOR) | 277.2
CC1CCC(C(C)C)C(OCC(O)CN2CCC2)C1 (stereo not drawn) | mu opiate receptor (MOR) | 110.9
CC1CCC(C(C)C)C(OCC(O)CN2CCCCCCC2)C1 (stereo not drawn) | mu opiate receptor (MOR) | 147.0
CC1CCC(C(C)C)C(OCC(O)CN2CCCc3ccccc32)C1 (stereo not drawn) | mu opiate receptor (MOR) | 73.9
CC1CCC(C(C)C)C(OCC(O)CN2CCCCC2)C1 (stereo not drawn) | mu opiate receptor (MOR) | 179.7
